- tgt: T1, hBCMA (human BCMA) (Homo sapiens, UniProt Q02223)
- T1 sequence (Q02223 1-184): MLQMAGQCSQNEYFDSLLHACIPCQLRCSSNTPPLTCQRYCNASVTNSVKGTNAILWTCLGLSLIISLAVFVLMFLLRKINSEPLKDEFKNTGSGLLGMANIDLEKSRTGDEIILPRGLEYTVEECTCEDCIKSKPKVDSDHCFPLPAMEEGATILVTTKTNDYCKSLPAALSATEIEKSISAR
- test protocol: Kinetics and affinity of hBCMA/human IgG interactions by SPR (Bio-Rad Proteon XPR36)
- Format: binding
- recorded conditions: huBCMA, 37° C.
- Experimental: All experiments were performed on a Bio-Rad Proteon XPR36 surface Plasmon resonance biosensor (Bio-Rad, Hercules, Calif.). […] The analysis temperature for the hBCMA binding analysis was 37° C. or 25° C. in a running buffer of HBS-T+, supplemented with 1 mg/mL BSA. […] Immediately after the 50 nM hBCMA injection, dissociation was monitored for 2 hours. […]
property name: ka (1/Ms) huBCMA @ 37° C. (M⁻¹ s⁻¹)
Number in M⁻¹ s⁻¹, nothing else.

Query: What value of ka (1/Ms) huBCMA @ 37° C. has been reported for the following molecule? L3.PY/L1.PS/H2.QL: anti-BCMA antibody (antibody, V domains shown) VH: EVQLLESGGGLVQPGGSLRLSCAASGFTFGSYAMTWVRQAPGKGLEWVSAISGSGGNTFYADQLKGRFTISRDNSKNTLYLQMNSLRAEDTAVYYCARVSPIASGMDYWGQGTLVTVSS VL: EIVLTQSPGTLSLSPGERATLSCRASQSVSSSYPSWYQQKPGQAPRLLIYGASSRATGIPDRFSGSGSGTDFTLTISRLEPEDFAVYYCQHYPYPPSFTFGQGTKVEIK
Response: 1.52e+07
